Value source: the supplement of paper PMC9112550

shrunken log2 fold change values for the sequences below.
# Tested on: Escherichia coli TOP10;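 note: peptides expressed intracellularly from a pBAD plasmid library in pooled LB shake-flask culture, induced with 0.3% L-arabinose, DNA abundance read by NGS, three biological replicates, DESeq2 with apeglm shrinkage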
# protocol_summary: shrunken log2 fold change of peptide-encoding DNA abundance (4.5 h post-induction vs induction); higher = less antimicrobial activity (less host growth inhibition)
# cond: time post-induction: 4.5 h; library: site-saturation at positions 5, 18, 19, 20

seq_text	shrunken log2 fold change
RRIRMRPPRLPRPRPRPEHSPRP	0.234
RRIRERPPRLPRPRPRPPIKPRP	-0.414
RRIRHRPPRLPRPRPRPAWVPRP	0.15
RRIRDRPPRLPRPRPRPWRHPRP	0.0719
RRIRFRPPRLPRPRPRPMADPRP	-0.00574
RRIRARPPRLPRPRPRPHWKPRP	-0.00664
RRIRTRPPRLPRPRPRPGILPRP	-0.0375
RRIRWRPPRLPRPRPRPTFWPRP	0.617
RRIRMRPPRLPRPRPRPEADPRP	0.136
RRIRPRPPRLPRPRPRPFIRPRP	0.00477
RRIRYRPPRLPRPRPRPCMYPRP	-0.101
RRIRSRPPRLPRPRPRPFQRPRP	0.101
